The origin of these recorded values is ChEMBL document CHEMBL1122568.

Listed below: TD50 values for each entry.
TEST PROTOCOL: Anticonvulsant activity was evaluated by rotarod toxicity test after subcutaneous administration.
Assay type: organism-based
ASSAY CONDITIONS: mouse, in vivo, sc
Write it as a number; the unit mg/kg goes unstated.

Param item = NC(=O)NC(=O)Cc1ccccc1 [PHENACEMIDE] ; retrieve measured TD50.
421

Another: CCCC(C)(COC(N)=O)COC(N)=O [MEPROBAMATE]
125

====

System: Mus musculus
TEST PROTOCOL: Anticonvulsant activity was evaluated by rotarod toxicity test and was determined 30 min after administration
Assay type: organism-based
ASSAY CONDITIONS: in vivo, 0.5 h
ENDPOINT: Activity

Solved entries (count: 3):
CCOC(=O)N1CCCC(OC(C)=O)(c2ccccc2)C1=O (centres undefined) = > 300 mg/kg
O=C(CBr)OC1(c2ccccc2)CCCNC1=O (centres undefined) = > 300 mg/kg
CN1CCCC(O)(c2ccccc2)C1=O (centres undefined) = > 300 mg/kg

Here is another molecule to look at.
Return reported Activity; argument: CCOC(=O)N1CCCC(N)(c2ccccc2)C1=O (centres undefined)
300 mg/kg
